Parameter: TGI. Scope: all listed entries.
- Test system: NCI-H460 lung
- ASSAY_PROCEDURE: NCI tumour cell line growth inhibition, 48 h

Past entries and their recorded results:
>>> observed("O=c1c2c([nH]c3ccccc13)CCCC2")
"> 100 µM"
>>> observed("Cn1c2c([N+](=O)[O-])cccc2c(=O)c2c(O)cc3c(c21)C=CC(C)(C)O3")
"> 100 µM"
>>> observed("O=C(NO)C(=O)Nc1cc(Cl)ccc1Cl")
"> 100 µM"
>>> observed("CC1=C(C(=O)OCc2ccncc2)C(C2=C(C)SCCS2)C(C(=O)OCc2ccncc2)=C(C)N1")
"73.5 µM"
>>> observed("C(=N\\c1nc2cc3sc(/N=C/c4cccs4)nc3cc2s1)/c1cccs1")
"> 100 µM"

[Q] Quick one: TGI of CC(=O)Oc1ccc2[nH]c3c(C)c4cccc-4ccc3c2c1 ?
[A] 10.3 µM

[Q] Field request: TGI | item: Cc1c([C@H](C(Cl)Cl)[C@H](O)[C@H]2C[C@H](C)C(=O)O2)ccc2c1C(=O)[C@H]1[C@H]2C[C@@H](Br)[C@@]23O[C@@H](CO[C@H]2O)CC13C (stereo partly specified)
[A] > 50 µM

[Q] I have this molecule here, N#C/C(=C\c1cn(Cc2ccccc2)c2ccccc12)C(=O)Nc1ncc(Cc2ccccc2Cl)s1 , and I need its recorded TGI.
[A] 1.99 µM

[Q] Which TGI reading was recorded for the molecule CCC1=C(C)C(=O)N/C1=C\c1[nH]c(C)c([C@H](C)CCN)c1C ?
[A] 35.5 µM

###

Reported TGI values follow for various molecules
- Test system: SK-MEL-28 melanoma
- ASSAY_PROCEDURE: NCI tumour cell line growth inhibition, 48 h

[Q] Requested field: TGI. Item: CCC(O)CC1OC2(CCC1C)CC1OC(=O)/C=C\C(C)(O)C(O)C(C)C(O)C(OC3CC(OC)C(O)C(C)O3)C(O)C(C)(O)CCC/C=C/C3CC(C)COC3(O)CC(O2)C1C (stereo unspecified)
[A] 54.6 µM

[Q] Could you tell me which TGI is on file for COc1ccc2c3c1O[C@H]1[C@@H](O)CC[C@@]4(O)[C@@H](C2)N(C)CC[C@]314 ?
[A] > 100 µM

[Q] Report TGI for COc1ccc(-c2cn3c(nc4ccccc43)c(/C=C/c3cccs3)n2)cc1 please.
[A] > 100 µM

[Q] For the molecule shown here, COc1cc(CN[C@H]2CCc3cc(OC)c(OC)c(OC)c3-c3ccc(SC)c(=O)cc32)cc(OC)c1 , give the reported TGI.
[A] > 100 µM

[Q] What TGI value was documented for this molecule, CC(=O)OC1CC2CC(=O)CC1N2C (stereo unspecified) ?
[A] > 100 µM

[Q] Data request, read-out TGI, for O=C1c2scc(-c3ccccc3)c2-n2cccc21
[A] 28.8 µM

[Q] Please give the measured TGI for this molecule: CN(C)c1ccc(Nc2ncnc3ccccc23)cc1
[A] > 100 µM

[Q] Entry under review: CCCC(=O)N(C(=O)CCC)C1=C(Cl)C(=O)c2ccccc2C1=O . Reported TGI?
[A] 13.6 µM

###

- Test system: MALME-3M melanoma
- ASSAY_PROCEDURE: NCI tumour cell line growth inhibition, 48 h
TEST_READOUT: TGI (µM)
Give just the number in µM; leave the unit off.

>>> observed("CC(C)=CC(=O)c1[nH]c2ccccc2c1CC(=O)NCCc1cn(C(c2ccccc2)(c2ccccc2)c2ccccc2)cn1")
12.5

Here is the next item to consider.
[Q] Recorded TGI of O=C(Nc1ccc(-n2cc(-c3ccncc3)c(-c3ccc(O)c(Cl)c3)n2)cc1)c1cc(C(F)(F)F)cc(C(F)(F)F)c1 , please.
[A] 16.7

###

- Test system: MDA-MB-435
- ASSAY_PROCEDURE: NCI tumour cell line growth inhibition, 48 h
Some compounds, each annotated with its measured log10 of TGI.
On a log10 scale: recorded TGI, unit µM.

>>> observed("COc1cc(C(=O)c2c(-c3ccccc3)oc3c(OC)cccc23)cc(OC)c1O")
-0.34

[Q] // fetch MDA-MB-435 log10 of TGI for O=C(Nc1cccc(-n2ccc3c(NC(=O)c4ccccc4)nccc32)c1)Nc1ccc(Cl)c(C(F)(F)F)c1
[A] -0.22

[Q] Value wanted: log10 of TGI (MDA-MB-435) of entry CC(=O)Oc1ccc2[nH]c3c(C)c4cccc-4ccc3c2c1
[A] 0.58

[Q] Give the reported log10 of TGI for CC1OC(OC2C(O)C(OCCc3ccc(O)c(O)c3)OC(CO)C2OC(=O)/C=C/c2ccc(O)c(O)c2)C(O)C(O)C1OC1OCC(O)(CO)C1O (stereo not given) (system: MDA-MB-435).
[A] 1.55

[Q] I'm curious: which log10 of TGI was measured for COC(=O)[C@]12CC[C@H]3CN(C(=O)OCc4ccccc4)[C@H]([C@H]31)[C@H](c1ccco1)N2 tested on MDA-MB-435?
[A] 1.79

[Q] Requested read-out log10 of TGI, target or system MDA-MB-435, entry C[C@]1(O)CC[C@H]2[C@@H]3CCc4cc(O)ccc4[C@H]3CC[C@@]21C
[A] -0.12

[Q] Which measured log10 of TGI belongs to O=C1C(Cl)=C(Nc2cccc(O)c2)C(=O)N1CCc1ccccc1 , tested on MDA-MB-435?
[A] 1.57

[Q] Notebook entry, MDA-MB-435 assay: log10 of TGI of C[n+]1cn(C2=C([O-])c3ccccc3C(=O)/C2=N\S(=O)(=O)c2ccccc2)c2ccccc21 = ?
[A] 0.80

[Q] API: value(readout= log10 of TGI, system= MDA-MB-435, query= CCC1=C(C)C(=O)N/C1=C\c1[nH]c(C)c([C@H](C)CCN)c1C )
[A] 1.47

###

- System: CAKI-1 renal
- ASSAY_PROCEDURE: NCI tumour cell line growth inhibition, 48 h; in the data active means GI50 below about 0.43 µM; inactive means the rest
Write down the outcome that applies. Available outcomes: Y = active, N = inactive

>>> label_class("COc1cc(CN[C@H]2CCc3cc(OC)c(OC)c(OC)c3-c3ccc(SC)c(=O)cc32)cc(OC)c1")
"Y"
>>> label_class("COc1ccc(-c2c(-c3cc(OC)c(OC)c(OC)c3)nc3sc(C4CC4)nn23)cc1OC")
"N"
>>> label_class("COc1ccc2c(c1)oc1c(C)c3c(c(C)c12)C(=O)N(N)C3=O")
"N"
>>> label_class("O=C1C(Cl)=C(Nc2cccc(O)c2)C(=O)N1CCc1ccccc1")
"N"
>>> label_class("O=C(/C=C/c1cc2ccccc2[nH]c1=O)c1ccc(Cl)cc1")
"N"

[Q] Recorded test outcome, item C=C1C(=O)O[C@H]2[C@H]1CC/C(CNC(=O)c1cccc3ccccc13)=C\CC[C@@]1(C)O[C@@H]21
[A] N

[Q] For this compound, state the assay outcome: C=C1c2c(C)nn(-c3ccc(OC)cc3)c2N(C)C23C[C@@H]1C1(C)c4c(C)nn(-c5ccc(OC)cc5)c4N(C)C(C)(C[C@H]12)C3 (stereo partly specified)
[A] N

[Q] Check the results log: what was the call for N#Cc1c(-c2ccc(Cl)cc2)csc1NC(=O)Nc1ccc(Cl)c(C(F)(F)F)c1 ?
[A] N

[Q] Test call for this compound, please: Cc1c([C@H](C(Cl)Cl)[C@H](O)[C@H]2C[C@H](C)C(=O)O2)ccc2c1C(=O)[C@H]1[C@H]2C[C@@H](Br)[C@@]23O[C@@H](CO[C@H]2O)CC13C (stereo partly specified)
[A] N

[Q] Name the outcome recorded for CC(=O)[CH-]C(=O)c1ccccc1.CC(=O)[CH-]C(=O)c1ccccc1.CCN(CC)CC[O-].CCN(CC)CC[O-].Cl.[Hf+4] in the assay.
[A] N

[Q] # fetch the recorded call for Brc1ccc(SCN(CSc2ccc(Br)cc2)Cc2ccccc2)cc1 here
[A] N

###

Recorded TGI values for a group of compounds are listed next.
- Tested on: NCI/ADR-RES ovarian
- ASSAY_PROCEDURE: NCI tumour cell line growth inhibition, 48 h

Before answering, review these 3 worked examples.
>>> observed("COc1ncc(-c2ccc3nccc(C#CCCCCC(=O)O)c3c2)cc1NS(=O)(=O)c1ccc(F)cc1F")
"> 100 µM"
>>> observed("COc1cc(/C=C2/SC(c3ccccc3)N(c3cccc(NC(C)=O)c3)C2=O)cc(OC)c1OC (stereo not drawn)")
"> 100 µM"
>>> observed("COC(=O)Cc1cccc2c1CCC2=O")
"> 100 µM"

[Q] What measured TGI goes with C=C1C(=O)O[C@H]2[C@H]1CC/C(CNC(=O)c1cccc3ccccc13)=C\CC[C@@]1(C)O[C@@H]21 ?
[A] 46.9 µM

[Q] Quick check: TGI of CCn1c2ccccc2c2cc(/C=C(/C#N)C(N)=S)ccc21 ?
[A] 38.5 µM

[Q] Reported TGI for COc1cc(/C=C/C(=O)c2ccc(Nc3nc(Nc4ccc(F)cc4)nc(Nc4ccc(Cl)cc4)n3)cc2)cc(OC)c1OC : what is it?
[A] > 85.3 µM

[Q] Entry COC(=O)[C@](NC(=O)OCc1ccccc1)([C@@H](C)S(=O)c1ccc(C)cc1)C(F)(F)F (stereo partly drawn) : reported TGI = ?
[A] > 100 µM

[Q] Quick one: TGI of CCC(O)CC1OC2(CCC1C)CC1OC(=O)/C=C\C(C)(O)C(O)C(C)C(O)C(OC3CC(OC)C(O)C(C)O3)C(O)C(C)(O)CCC/C=C/C3CC(C)COC3(O)CC(O2)C1C (stereo not drawn) ?
[A] 45.1 µM

[Q] Suppose we examine the compound O=C(C=P(c1ccccc1)(c1ccccc1)c1ccccc1)c1ccc(-c2cccc([N+](=O)[O-])c2)cc1 ; what TGI value has been reported?
[A] 25.1 µM

[Q] Sample CC(=O)OC1CC2CC(=O)CC1N2C (stereo not drawn) — what was its TGI?
[A] > 100 µM

[Q] Which TGI is listed for C=C1CC2(OC1=O)C(=O)N(C)c1ccc(I)cc12 (stereo not drawn) ?
[A] 4.68 µM

[Q] Look up TGI for this compound: C=CCn1c(SCC(=O)Nc2ccc(C(=O)/C=C/c3cc(OC)c(OC)c(OC)c3)cc2)nnc1-c1ccc(Cl)cc1
[A] > 100 µM

[Q] Would you mind telling me what TGI value was observed for O=C1C=CC(=O)c2c1ccc1c3ccccc3n(CCCCCCCCn3c4ccccc4c4ccc5c(c43)C(=O)C=CC5=O)c21 ?
[A] > 100 µM

[Q] Given the compound CC(=O)Oc1ccc2[nH]c3c(C)c4cccc-4ccc3c2c1 , what is its reported TGI?
[A] 5.33 µM

[Q] Which TGI value belongs to O=c1[nH][nH]c(=O)n1Cc1cccc(Cn2c(=O)[nH][nH]c2=O)c1 ?
[A] > 100 µM
